Data origin, for the record: BigSolDB 2.1

# setup_conditions: in 2-methoxyethanol, 298.15 K
measured_quantity: solubility (mole fraction)
Reply with just the number.

Quick one: solubility (mole fraction) for Cl.c1ccc2c(CC3=NCCN3)cccc2c1 ? 0.0246

----------
# setup_conditions: in methanol, 313.15 K
measured_quantity: solubility (mole fraction)
Reply with just the number.

Quick one: solubility (mole fraction) for Cl.c1ccc2c(CC3=NCCN3)cccc2c1 ? 0.04

----------
# setup_conditions: in isopropanol, 298.15 K
measured_quantity: solubility (mole fraction)
Reply with just the number.

Quick one: solubility (mole fraction) for Cl.c1ccc2c(CC3=NCCN3)cccc2c1 ? 0.00169

----------
# setup_conditions: in isopropanol, 308.15 K
measured_quantity: solubility (mole fraction)

Quick one: solubility (mole fraction) for Cl.c1ccc2c(CC3=NCCN3)cccc2c1 ? 0.00249

----------
# setup_conditions: in 2-methoxyethanol, 318.15 K
measured_quantity: solubility (mole fraction)

Quick one: solubility (mole fraction) for Cl.c1ccc2c(CC3=NCCN3)cccc2c1 ? 0.0419

----------
# setup_conditions: in 2-methoxyethanol, 283.15 K
measured_quantity: solubility (mole fraction)

Quick one: solubility (mole fraction) for Cl.c1ccc2c(CC3=NCCN3)cccc2c1 ? 0.0157

----------
# setup_conditions: in 2-methoxyethanol, 323.15 K
measured_quantity: solubility (mole fraction)
Reply with just the number.

Quick one: solubility (mole fraction) for Cl.c1ccc2c(CC3=NCCN3)cccc2c1 ? 0.0476

----------
# setup_conditions: in isopropanol, 313.15 K
measured_quantity: solubility (mole fraction)
Reply with just the number.

Quick one: solubility (mole fraction) for Cl.c1ccc2c(CC3=NCCN3)cccc2c1 ? 0.00309

----------
# setup_conditions: in ethanol, 288.15 K
measured_quantity: solubility (mole fraction)
Reply with just the number.

Quick one: solubility (mole fraction) for Cl.c1ccc2c(CC3=NCCN3)cccc2c1 ? 0.00457

----------
# setup_conditions: in 2-methoxyethanol, 278.15 K
measured_quantity: solubility (mole fraction)

Quick one: solubility (mole fraction) for Cl.c1ccc2c(CC3=NCCN3)cccc2c1 ? 0.0132

----------
# setup_conditions: in ethanol, 308.15 K
measured_quantity: solubility (mole fraction)
Reply with just the number.

Quick one: solubility (mole fraction) for Cl.c1ccc2c(CC3=NCCN3)cccc2c1 ? 0.00893

----------
# setup_conditions: in methanol, 323.15 K
measured_quantity: solubility (mole fraction)

Quick one: solubility (mole fraction) for Cl.c1ccc2c(CC3=NCCN3)cccc2c1 ? 0.0527

----------
# setup_conditions: in ethanol, 318.15 K
measured_quantity: solubility (mole fraction)
Reply with just the number.

Quick one: solubility (mole fraction) for Cl.c1ccc2c(CC3=NCCN3)cccc2c1 ? 0.012

----------
# setup_conditions: in 2-methoxyethanol, 303.15 K
measured_quantity: solubility (mole fraction)

Quick one: solubility (mole fraction) for Cl.c1ccc2c(CC3=NCCN3)cccc2c1 ? 0.0287

----------
# setup_conditions: in methanol, 293.15 K
measured_quantity: solubility (mole fraction)
Reply with just the number.

Quick one: solubility (mole fraction) for Cl.c1ccc2c(CC3=NCCN3)cccc2c1 ? 0.0198

----------
# setup_conditions: in isopropanol, 303.15 K
measured_quantity: solubility (mole fraction)
Reply with just the number.

Quick one: solubility (mole fraction) for Cl.c1ccc2c(CC3=NCCN3)cccc2c1 ? 0.00202

----------
# setup_conditions: in isopropanol, 288.15 K
measured_quantity: solubility (mole fraction)
Reply with just the number.

Quick one: solubility (mole fraction) for Cl.c1ccc2c(CC3=NCCN3)cccc2c1 ? 0.00101

----------
# setup_conditions: in ethanol, 293.15 K
measured_quantity: solubility (mole fraction)
Reply with just the number.

Quick one: solubility (mole fraction) for Cl.c1ccc2c(CC3=NCCN3)cccc2c1 ? 0.00545

----------
# setup_conditions: in 2-methoxyethanol, 288.15 K
measured_quantity: solubility (mole fraction)
Reply with just the number.

Quick one: solubility (mole fraction) for Cl.c1ccc2c(CC3=NCCN3)cccc2c1 ? 0.0184

----------
# setup_conditions: in 2-methoxyethanol, 293.15 K
measured_quantity: solubility (mole fraction)
Reply with just the number.

Quick one: solubility (mole fraction) for Cl.c1ccc2c(CC3=NCCN3)cccc2c1 ? 0.0214

----------
# setup_conditions: in 2-methoxyethanol, 308.15 K
measured_quantity: solubility (mole fraction)
Reply with just the number.

Quick one: solubility (mole fraction) for Cl.c1ccc2c(CC3=NCCN3)cccc2c1 ? 0.0329

----------
# setup_conditions: in ethanol, 283.15 K
measured_quantity: solubility (mole fraction)
Reply with just the number.

Quick one: solubility (mole fraction) for Cl.c1ccc2c(CC3=NCCN3)cccc2c1 ? 0.00386

----------
# setup_conditions: in ethanol, 298.15 K
measured_quantity: solubility (mole fraction)
Reply with just the number.

Quick one: solubility (mole fraction) for Cl.c1ccc2c(CC3=NCCN3)cccc2c1 ? 0.00639

----------
# setup_conditions: in methanol, 298.15 K
measured_quantity: solubility (mole fraction)
Reply with just the number.

Quick one: solubility (mole fraction) for Cl.c1ccc2c(CC3=NCCN3)cccc2c1 ? 0.0243

----------
# setup_conditions: in methanol, 288.15 K
measured_quantity: solubility (mole fraction)

Quick one: solubility (mole fraction) for Cl.c1ccc2c(CC3=NCCN3)cccc2c1 ? 0.0164

----------
# setup_conditions: in methanol, 318.15 K
measured_quantity: solubility (mole fraction)

Quick one: solubility (mole fraction) for Cl.c1ccc2c(CC3=NCCN3)cccc2c1 ? 0.0462

----------
# setup_conditions: in methanol, 303.15 K
measured_quantity: solubility (mole fraction)
Reply with just the number.

Quick one: solubility (mole fraction) for Cl.c1ccc2c(CC3=NCCN3)cccc2c1 ? 0.0287
